- Tested on: HeLa cells
- assay-comment: In vitro cytotoxicity assay (resazurin)
- Type: cell-based
- study-conditions: 20 µM compound, 24 h, % cell viability relative to untreated control
observed-property: % Viability at 20 µM (SD) HeLa Cell

Worked set:
1) CN(C)c1ccc(/C=C2\CCc3ccc(O)cc3C2=O)cc1; 51 (4) %
2) COc1ccc2c(c1)C(=O)/C(=C/c1ccco1)CC2; 97 (9) %
3) O=C1/C(=C/c2ccccc2)CCc2c(O)cccc21; 35 (1) %

q: Find % Viability at 20 µM (SD) HeLa Cell (HeLa cells) for the entry "COc1ccc2c(c1)C(=O)/C(=C/c1cccs1)CC2"
a: 106 (2) %

q: Field: % Viability at 20 µM (SD) HeLa Cell (HeLa cells). Entry: "O=C1/C(=C/c2ccc(Cl)c(Cl)c2)CCc2ccc(O)cc21"
a: 5 (0.9) %

q: Recorded % Viability at 20 µM (SD) HeLa Cell for "O=C1/C(=C/c2cccc(Cl)c2)CCc2ccc(O)cc21" with HeLa cells, please?
a: 18 (0.4) %

q: Entry "COc1ccc(/C=C2\CCc3ccc(O)cc3C2=O)cc1" , system HeLa cells: what % Viability at 20 µM (SD) HeLa Cell was measured?
a: 25 (2) %

q: Hi! What's the reported % Viability at 20 µM (SD) HeLa Cell for "O=C1/C(=C/c2ccc(Cl)cc2)CCCc2ccccc21" on HeLa cells?
a: 53 (10) %

q: Can you look up % Viability at 20 µM (SD) HeLa Cell on HeLa cells for "O=C1/C(=C/c2ccc(Cl)cc2)Cc2ccccc21" ?
a: 74 (10) %

q: Missing value: % Viability at 20 µM (SD) HeLa Cell, HeLa cells, entry "O=c1c(Cc2ccc(Cl)cc2)coc2ccccc12" . Fill in?
a: 103 (3) %

q: Request - read-out % Viability at 20 µM (SD) HeLa Cell | tested on HeLa cells | molecule "COc1ccc2c(c1)C(=O)/C(=C/c1cccnc1Cl)CC2"
a: 47 (1.7) %

q: Identify the measured % Viability at 20 µM (SD) HeLa Cell of "Nc1ccc2c(c1)CC/C(=C\c1ccccc1)C2=O" for HeLa cells.
a: 86 (9) %

q: GET /values?readout=% Viability at 20 µM (SD) HeLa Cell&system=HeLa cells&item= "O=C1/C(=C/c2ccc(Cl)cc2)CCc2ccccc21"
a: 100 (3) %

q: Fill in the recorded % Viability at 20 µM (SD) HeLa Cell for this molecule, with HeLa cells as test system: "O=C1/C(=C/c2ccc(O)cc2)CCc2ccc(O)cc21"
a: 44 (4) %

q: Record lookup: for HeLa cells, what % Viability at 20 µM (SD) HeLa Cell belongs to "O=C1/C(=C/c2cccc(Cl)c2)CCc2ccccc21" ?
a: 41 (13) %

q: Record lookup: for HeLa cells, what % Viability at 20 µM (SD) HeLa Cell belongs to "COc1ccc2c(c1)C(=O)/C(=C/c1ccccn1)CC2" ?
a: 20 (0.6) %

q: Find the measured % Viability at 20 µM (SD) HeLa Cell: item "O=C1/C(=C/c2ccc(Cl)cc2)CCc2ccc(O)cc21" , target or system HeLa cells.
a: 27 (2) %

q: Fill in the recorded % Viability at 20 µM (SD) HeLa Cell for this molecule, with HeLa cells as test system: "O=C1/C(=C/c2cccc(F)c2)CCc2ccc(O)cc21"
a: 21 (1) %

q: Query % Viability at 20 µM (SD) HeLa Cell on HeLa cells for "COc1ccc2c(c1)C(=O)/C(=C/c1cccnc1)CC2"
a: 17 (4) %

Reference for the values: paper PMC6572618
